system: HSC-4; test: Cytotoxicity against human HSC4 cells after 24 hrs; format: functional; conditions: HSC-4, 24 h
reportedEndpoint: CC50 (µM)
Your answer is read as µM, so omit the unit and give the number.

Reported CC50 for HSC-4, given "COc1ccc(/C=C2\CCC/C(=C\c3ccccc3[N+](=O)[O-])C2=O)cc1" ?
24

Report CC50 for "O=C1/C(=C/c2ccccc2)CCC/C1=C\c1ccccc1[N+](=O)[O-]" tested on HSC-4.
3.2

What reported CC50 corresponds to "O=C1/C(=C/c2ccccc2)CCC/C1=C\c1cccc([N+](=O)[O-])c1" on HSC-4?
2.4

----------
experiment: Partition coefficient, log P of the compound; assay type: physicochemical; conditions: octanol/water
logP under 5 gets MET, anything at or over 5 gets NOT MET.

# check: logP < 5 for "Cc1ccc(/C=C2\CCC/C(=C\c3ccc([N+](=O)[O-])cc3)C2=O)cc1"
NOT MET

Given "O=C1/C(=C/c2ccccc2)CCC/C1=C\c1ccccc1[N+](=O)[O-]" , is recorded logP strictly lower than 5?
MET

Regarding "Cc1ccc(/C=C2\CCC/C(=C\c3ccccc3[N+](=O)[O-])C2=O)cc1" , kindly confirm whether its logP is beneath 5.
NOT MET

For "COc1ccc(/C=C2\CCC/C(=C\c3ccccc3[N+](=O)[O-])C2=O)cc1" , is the recorded logP below the cut-off of 5?
MET

Quick check: does "COc1cc(/C=C2\CCC/C(=C\c3ccc([N+](=O)[O-])cc3)C2=O)cc(OC)c1OC" have logP under 5?
MET

----------
assay: Cytotoxicity against human HPLF cells after 24 hrs; type: cell-based; details: HPLF cells
Exercise: state measured CC50 at 24 h for each of the molecules provided.

Would you kindly share the measured CC50 at 24 h for "COc1ccc(/C=C2\CCC/C(=C\c3ccc([N+](=O)[O-])cc3)C2=O)cc1" ?
> 400 µM

Name the reported CC50 at 24 h value associated with the molecule "COc1cc(/C=C2\CCC/C(=C\c3ccc([N+](=O)[O-])cc3)C2=O)cc(OC)c1OC"
378 µM

Requested field: CC50 at 24 h. Item: "O=C1/C(=C/c2ccc(Cl)cc2)CCC/C1=C\c1ccc([N+](=O)[O-])cc1"
332 µM

----------
system: Mus musculus; experiment: Toxicity in mouse assessed as induction of mortality at 30 to 300 mg/kg, ip; format: organism-based; parameters: dose 30-300 mg/kg, route intraperitoneal; settings: in vivo
reportedEndpoint: Activity

Please review the entries below; each comes with its answer.
# smilesText, reportedEndpoint, valueObserved
rows = [
    ("COc1cc(/C=C2\\CCC/C(=C\\c3ccccc3[N+](=O)[O-])C2=O)cc(OC)c1OC", "Activity", "Non-toxic"),
    ("O=C1/C(=C/c2ccc(Cl)cc2)CCC/C1=C\\c1ccccc1[N+](=O)[O-]", "Activity", "Non-toxic"),
    ("COc1ccc(/C=C2\\CCC/C(=C\\c3cccc([N+](=O)[O-])c3)C2=O)cc1", "Activity", "Non-toxic"),
    ("Cc1ccc(/C=C2\\CCC/C(=C\\c3cccc([N+](=O)[O-])c3)C2=O)cc1", "Activity", "Non-toxic"),
    ("O=C1/C(=C/c2ccc(Cl)cc2)CCC/C1=C\\c1ccc([N+](=O)[O-])cc1", "Activity", "Non-toxic"),
]

Item "COc1ccc(/C=C2\CCC/C(=C\c3ccc([N+](=O)[O-])cc3)C2=O)c(OC)c1OC" has what recorded Activity?
Non-toxic

What does the data say about its Activity? Entry: "COc1cc(OC)c(OC)cc1/C=C1\CCC/C(=C\c2ccc([N+](=O)[O-])cc2)C1=O"
Non-toxic

Dear colleague, I am looking for the recorded Activity of the following compound: "COc1ccc(/C=C2\CCC/C(=C\c3ccc([N+](=O)[O-])cc3)C2=O)cc1"
Non-toxic

// provenance: ChEMBL document CHEMBL1157649
